// data source = paper PMC4108476

study_system: T1, [2Fe-2S]-IscR wild type (Escherichia coli, UniProt P0AGK8 1-162)
T1 sequence: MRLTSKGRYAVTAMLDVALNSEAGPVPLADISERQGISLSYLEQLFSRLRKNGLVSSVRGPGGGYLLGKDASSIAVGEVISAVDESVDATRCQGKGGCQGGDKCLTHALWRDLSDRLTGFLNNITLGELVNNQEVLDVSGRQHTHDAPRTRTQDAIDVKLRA
test: fluorescence anisotropy

- binder: "PiscR site B 30-mer (dsDNA) DNA 1: AAATAGTTGACCAATTTACTCGGGAATGTC DNA 2: GACATTCCCGAGTAAATTGGTCAACTATTT"
  Kd: "112 nM"
